Would you kindly list inhibition for each of these compounds?
# tested_target: Polyunsaturated fatty acid 5-lipoxygenase (Homo sapiens) (UniProt P09917)
# protocol_notes: Inhibition of 5LOX (unknown origin) using arachidonic acid as substrate at 0.1 uM after 5 mins by spectrophotometric analysis
Answer with the number, then the unit.

The compound listed as O=C(C(=O)N1CCCC1)c1cn(C(=O)c2ccccc2)c2ccccc12 has a reported inhibition of 17.4%

// sample Cc1ccc(S(=O)(=O)n2cc(C(=O)C(=O)N3CCCC3)c3ccccc32)cc1 , its inhibition was 27.8%

The compound COc1ccc2c(c1)c(C(=O)C(=O)N1CCOCC1)cn2OS(=O)(=O)c1ccc(C)cc1 showed inhibition equal to 22%

// COc1ccc2c(c1)c(C(=O)C(=O)N1CCCC1)cn2C(=O)/C=C/c1ccccc1 : inhibition value = 25.6%

Record O=C(C(=O)N1CCOCC1)c1cn(C(=O)/C=C/c2ccccc2)c2ccccc12 , field inhibition: 21.1%

----------
# tested_target: Polyunsaturated fatty acid 5-lipoxygenase (Homo sapiens)
# Sequence (whole entry): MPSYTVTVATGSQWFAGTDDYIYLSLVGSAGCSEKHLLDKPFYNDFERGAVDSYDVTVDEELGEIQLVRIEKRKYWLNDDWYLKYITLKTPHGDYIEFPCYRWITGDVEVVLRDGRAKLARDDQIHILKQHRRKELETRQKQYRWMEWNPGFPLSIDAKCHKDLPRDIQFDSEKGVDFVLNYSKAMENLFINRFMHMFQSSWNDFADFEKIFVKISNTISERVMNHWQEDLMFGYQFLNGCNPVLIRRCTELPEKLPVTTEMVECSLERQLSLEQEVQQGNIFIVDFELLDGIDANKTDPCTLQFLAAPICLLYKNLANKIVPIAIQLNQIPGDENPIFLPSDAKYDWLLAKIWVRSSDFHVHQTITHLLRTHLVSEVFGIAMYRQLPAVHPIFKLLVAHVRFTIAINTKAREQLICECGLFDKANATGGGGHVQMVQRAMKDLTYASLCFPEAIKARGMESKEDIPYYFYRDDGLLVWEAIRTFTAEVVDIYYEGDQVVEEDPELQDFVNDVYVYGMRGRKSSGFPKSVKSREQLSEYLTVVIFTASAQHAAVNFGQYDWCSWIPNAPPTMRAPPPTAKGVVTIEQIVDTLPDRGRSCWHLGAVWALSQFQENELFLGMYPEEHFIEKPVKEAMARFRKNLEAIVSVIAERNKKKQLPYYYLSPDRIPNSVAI
# protocol_notes: Inhibition of 5LOX (unknown origin) using arachidonic acid as substrate at 1 uM after 5 mins by spectrophotometric analysis
Label satisfied for high-side inhibition (at or above 50%) and not satisfied for low-side inhibition (below it).

## Input Say whether COc1ccc2c(c1)c(C(=O)C(=O)N1CCOCC1)cn2OS(=O)(=O)c1ccc(C)cc1 shows inhibition of 50% or more.
## Output satisfied

## Input Does COc1ccc2c(c1)c(C(=O)C(=O)N1CCCC1)cn2C(=O)/C=C/c1ccccc1 have a reported inhibition of at least 50%?
## Output satisfied

## Input Answer whether inhibition of O=C(C(=O)N1CCCC1)c1cn(C(=O)c2ccccc2)c2ccccc12 is greater than or equal to 50%.
## Output satisfied

## Input Has Cc1ccc(S(=O)(=O)n2cc(C(=O)C(=O)N3CCCC3)c3ccccc32)cc1 a recorded inhibition greater than or equal to 50%?
## Output satisfied

## Input Check the entry O=C(C(=O)N1CCOCC1)c1cn(C(=O)/C=C/c2ccccc2)c2ccccc12 : does inhibition equal or exceed 50%?
## Output not satisfied
